Source listed as the supplement of paper PMC4862054.

Test system: HCC1143
Experiment: normalised viability (% of control), CellTiter-Blue; higher = more viable cells (about 100 = DMSO control)
Settings: 10 nM; incubation time: 72 h
measure: normalised viability (%)

| chemical structure | output unit | number |
| --- | --- | --- |
| CN(C)CCOc1ccc(/C(=C(/CCCl)c2ccccc2)c2ccccc2)cc1 | % | 92.5 |
| CN(C)c1nc(N(C)C)nc(N(C)C)n1 | % | 74.7 |
| COc1cc(OC2CCN(C)CC2)ccc1Nc1ncc2c(n1)n(C1CCCC1)c(=O)n2C | % | 132 |
| C=C1C[C@@H]2[C@H](CC[C@]3(C)C(=O)CC[C@@H]23)[C@@]2(C)C=CC(=O)C=C12 | % | 88.7 |
| Cc1cc(Nc2cc(CN3CCOCC3)c3nc(C)c(Cc4ccc(Cl)cc4F)n3n2)n[nH]1 | % | 78.1 |
| CNC(=O)c1cc(Oc2ccc(NC(=O)Nc3ccc(Cl)c(C(F)(F)F)c3)c(F)c2)ccn1 | % | 76.8 |

* * *

# drug sensitivity score per record follows
Test system: MDA-MB-436
Experiment: drug sensitivity score (DSS), CellTiter-Glo (DSS (AUC-based score)); higher = stronger drug effect (viability inhibition or cytotoxicity); extreme values may be limits of the assay
Details: incubation time: 72 h

| chemical structure | drug sensitivity score |
| --- | --- |
| CCn1c(-c2nonc2N)nc2cnc(Oc3cccc(NC(=O)c4ccc(OCCN5CCOCC5)cc4)c3)cc21 | 1.31 |
| COCC[n+]1c2c(n(Cc3cnccn3)c1C)C(=O)c1ccccc1C2=O | 40.6 |
| COc1cc2ncnc(Nc3ccc(F)c(Cl)c3)c2cc1OCCCN1CCOCC1 | 0 |
| CN(C)c1nc(N(C)C)nc(N(C)C)n1 | 0 |
| N#Cc1ccc(COC[C@H]2O[C@@H](n3c(NCc4ccc(Cl)c(Cl)c4)nc4c(N)ncnc43)[C@H](O)[C@@H]2O)cc1 | 0 |

* * *

# normalised viability listing for each entry below
System: MDA-MB-231
Experiment: normalised viability (% of control), CellTiter-Blue; higher = more viable cells (100 = DMSO, 0 = benzethonium chloride kill control)
Conditions: incubation time: 72 h

| compound | normalised viability (%) |
| --- | --- |
| NC(=O)c1ccc(I)c([N+](=O)[O-])c1 [Iniparib] (1 nM) | 98.9 |
| CO[C@H]1C[C@@H]2CC[C@@H](C)[C@@](O)(O2)C(=O)C(=O)N2CCCC[C@H]2C(=O)O[C@H]([C@H](C)C[C@@H]2CC[C@@H](OP(C)(C)=O)[C@H](OC)C2)CC(=O)[C@H](C)/C=C(\C)[C@@H](O)[C@@H](OC)C(=O)[C@H](C)C[C@H](C)/C=C/C=C/C=C/1C [Ridaforolimus] (0.1 nM) | 112 |
| C=C1C[C@@H]2[C@H](CC[C@]3(C)C(=O)CC[C@@H]23)[C@@]2(C)C=CC(=O)C=C12 [Exemestane] (1 nM) | 93.5 |
| O=C(Nc1cccnc1)N1CCC(Cc2cccc(Oc3ccc(C(F)(F)F)cn3)c2)CC1 [PF-3845] (1 nM) | 114 |
| COCC1(CO)C(=O)C2CCN1CC2 (stereo not given) [Prima-1 Met] (1 nM) | 89.7 |

* * *

Test system: MDA-MB-453
Assay: normalised response (% of control), CellTiter-Glo; higher = more viable cells (100 = DMSO, 0 = benzethonium chloride kill control)
Settings: incubation time: 72 h
// map normalised response to label using low-valued (below 60%), mid-valued (60% to below 90%), high-valued (90% or more)

| compound | cat |
| --- | --- |
| COc1cc2/c(=N/c3ccc(Br)cc3F)nc[nH]c2cc1OCC1CCN(C)CC1 [Vandetanib] (1000 nM) | mid-valued |
| CCc1c2c(nc3ccc(OC(=O)N4CCC(N5CCCCC5)CC4)cc13)-c1cc3c(c(=O)n1C2)COC(=O)[C@]3(O)CC [Irinotecan] (10000 nM) | high-valued |
| COCC[n+]1c2c(n(Cc3cnccn3)c1C)C(=O)c1ccccc1C2=O [YM155] (10000 nM) | low-valued |
| CN(C)CCOc1ccc(/C(=C(/CCCl)c2ccccc2)c2ccccc2)cc1 [Toremifene] (10000 nM) | mid-valued |
| S=P(N1CC1)(N1CC1)N1CC1 [Thio-TEPA] (50000 nM) | high-valued |
| Nc1cc(C(F)(F)F)c(-c2cc(N3CCOCC3)nc(N3CCOCC3)n2)cn1 [Buparlisib] (10000 nM) | mid-valued |
| COCC1(CO)C(=O)C2CCN1CC2 (centres undefined) [Prima-1 Met] (10000 nM) | high-valued |
| COc1cc2c(NC3CCN(C(C)C)CC3)nc(N3CCC(F)(F)CC3)nc2cc1OCCCN1CCCC1 [UNC0642] (10000 nM) | low-valued |
